Data provenance is ChEMBL document CHEMBL1142603.

Exercise: state measured IC90 for each of the molecules provided.
tested on: Leishmania donovani; test: Antileishmanial activity against Leishmania donovani after 72 hrs by alamar blue assay; type: functional, organism-based
Kindly provide the numeric value in µg/mL only, without the unit symbol.

Task: What measured IC90 goes with `O=C1CC[C@H]2C[C@]34CN5CCCC/C=C\CC[C@@]6(C=C(c7nccc8c7[nH]c7ccccc78)[C@@H]3CC5)O[C@H](CC1)N2[C@H]46` ?
Result: 40

Task: What measured IC90 goes with O=C1CCCN2[C@@H](CC1)C[C@]13CN4CCCC/C=C\CC[C@](O)(C=C(c5nccc6c5[nH]c5ccccc56)C1CC4)[C@H]23 (stereo not given in full) ?
Result: 6.8

Task: What measured IC90 goes with `C1=C(c2[nH]ccc3c4ccccc4nc2-3)[C@@H]2CCN3CCCC/C=C\CC[C@]14O[C@@H]1CCC/C=C\[C@H]5C[C@@]2(C3)[C@H]4N51` ?
Result: 50

Task: What measured IC90 goes with `O[C@]12C=C(c3nccc4c3[nH]c3ccccc34)[C@@H]3CCN(CCCC/C=C\CC1)C[C@@]31C[C@@H]3/C=C\CCCCN3[C@H]12` ?
Result: 1.8

Task: What measured IC90 goes with O=C1CCCN2[C@@H](CC1)C[C@]13CN4CCCC/C=C\CC[C@](O)(C=C(c5nccc6c5[nH]c5c(O)cccc56)C1CC4)[C@H]23 (stereo not given in full) ?
Result: 7

---

system: Leishmania donovani; test: Antileishmanial activity against Leishmania donovani after 72 hrs by alamar blue assay; type: functional, organism-based
value_type: IC90 (µg/mL)
Kindly provide the numeric value in µg/mL only, without the unit symbol.

Task: What measured IC90 goes with N=C(N)c1ccc(OCCCCCOc2ccc(C(=N)N)cc2)cc1 [PENTAMIDINE] ?
Result: 10

Task: What measured IC90 goes with C1=C(c2nccc3c2[nH]c2ccccc23)[C@@H]2CCN3CCCC/C=C\CC[C@]14O[C@@]15/C=C\CCCCN1[C@@H]4[C@]2(C3)C5 [12,34-OXAMANZAMINE A] ?
Result: 40

Task: What measured IC90 goes with Oc1ccc2[nH]c3c(C4=C[C@@]5(O)CC/C=C\CCCCN6CC[C@@H]4[C@]4(C[C@@H]7/C=C\CCCCN7[C@H]45)C6)nccc3c2c1 [MANZAMINE Y] ?
Result: 8

Task: What measured IC90 goes with C[C@@H]1[C@H](O)[C@@H](C)/C=C/C=C/C=C/C=C/C=C/C=C/C=C/[C@H](O[C@@H]2O[C@H](C)[C@@H](O)[C@H](N)[C@@H]2O)C[C@@H]2O[C@](O)(C[C@@H](O)C[C@@H](O)[C@H](O)CC[C@@H](O)C[C@@H](O)CC(=O)O[C@H]1C)C[C@H](O)[C@H]2C(=O)O [AMPHOTERICIN B] ?
Result: 0.15

Task: What measured IC90 goes with `O=C1CCCN2[C@@H](CC1)C[C@]13CN4CCCC/C=C\CC[C@](O)(C=C(c5nccc6c5[nH]c5ccc(O)cc56)[C@@H]1CC4)[C@H]23` ?
Result: 4.3

Task: What measured IC90 goes with Oc1cccc2c1[nH]c1c(C3=C[C@@]4(O)CC/C=C\CCCCN5CC[C@@H]3[C@]3(CC6/C=C\CCCCN6[C@H]34)C5)nccc12 (stereo partly specified) ?
Result: 11
